Recorded values, source patent US20210145976A1.

# target or test system: human serum albumin (human) (UniProt P02768)
# Sequence (P02768 25-609 limits assumed): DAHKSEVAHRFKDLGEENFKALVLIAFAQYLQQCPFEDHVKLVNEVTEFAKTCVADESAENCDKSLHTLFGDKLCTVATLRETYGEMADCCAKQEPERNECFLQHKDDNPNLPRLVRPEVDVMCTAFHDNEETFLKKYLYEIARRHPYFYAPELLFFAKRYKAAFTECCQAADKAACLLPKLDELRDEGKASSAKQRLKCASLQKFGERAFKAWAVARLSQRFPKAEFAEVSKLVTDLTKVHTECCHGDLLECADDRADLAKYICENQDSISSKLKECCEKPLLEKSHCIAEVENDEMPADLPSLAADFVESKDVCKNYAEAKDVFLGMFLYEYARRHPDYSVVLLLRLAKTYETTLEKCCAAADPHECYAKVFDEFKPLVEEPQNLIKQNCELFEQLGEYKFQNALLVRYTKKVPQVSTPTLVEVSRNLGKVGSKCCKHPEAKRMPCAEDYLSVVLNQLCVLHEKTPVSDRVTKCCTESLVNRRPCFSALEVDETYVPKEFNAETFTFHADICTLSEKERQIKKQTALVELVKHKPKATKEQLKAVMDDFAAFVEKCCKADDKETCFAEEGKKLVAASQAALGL
# test description: screening ELISA
Provide the reported HSA of each item.
Reply briefly: the number, and no unit.

Exercise: Specify HSA for SEQ ID NO 115 (designed binder) MLPAPKNLVVSRVTEDSARLSWTAPDAAFDSFFIGYLEPQPPGEAIVLTVPGSERSYDLTGLKPGTEYNVTIQGVKGGFPSMPLSAIFTTT and stop.
Key: 3450

Exercise: State its HSA for this binder: SEQ ID NO 165 (designed binder) MLPARKNLVVSRVTEDSARLSWTAPDAAFDSFFIPYAEPSPTGEAIVLTVPGSERSYDLTGLKPGTEYSVLIHGVKGGHLSDPLSAISTT
Key: 65200

Exercise: Tell us which HSA value is on record for SEQ ID NO 86 (designed binder) MLPAPKNLVVSRVTEDSARLSWTAPDAAFDSFIIWYAEWVNDGEAIVLTVPGSERSYDLTGLKPGTEYRVEITGVKGGTWSRPLSAIFTT
Key: 2250

Exercise: For the binder SEQ ID NO 292 (designed binder) MLPAPKNLVVSRVTEDSARLSWTAPDAAFDSFDIAYWELTPSGEAIELLVPGSERSYDLTGLKPGTEYRVDIIGVKGGFISEPLGATFTT , report HSA.
Key: 8850

Exercise: Tell me its HSA given SEQ ID NO 187 (designed binder) MLPAPKNLVVSRVTEDSARLSWTAPDAAFDSFVIEYFEFVGYGEAIVLTVPGSERSYDLTGLKPGTEYSVGIYGVKGGKLSPPLSAIFTT as the entry.
Key: 7250

Exercise: Recall and state the measured HSA for SEQ ID NO 55 (designed binder) MLPAPKNLVVSRVTEDSARLSWTAPDAAFDSFIIEYWEFVGYGEAIVLTVPGSERSYDLTGLKPGTEYWVAIYGVKGGDLSKPLSAIFTT .
Key: 7760

Exercise: Report measured HSA; entry is SEQ ID NO 119 (designed binder) MLPAPKNLVVSRVTEDSARLSWTAPDAAFDSFHIEYEETPQKGEAIFLRVPGSERSYDLTGLKPGTEYVVNIRGVKGGDLSSPLGALFTT
Key: 1850

Exercise: Report HSA, nothing else, for this binder: SEQ ID NO 85 (designed binder) MLPAPKNLVVSRVTEDSARLSWTAPDAAFDSFFIWYWEKSVDGEAIVLTVPGSERSYDLTGLKPGTEYNVGIQGVKGGTPSDPLSAIFTT
Key: 2500

Exercise: Given SEQ ID NO 181 (designed binder) MLPAPKNLVVSHVTEDSARLSWTAPDAAFDSFPIAYAEPRPDGEAIVLTVPGSERSYDLTGLKPGTEYSVLIHGVKGGLLSSPLSAIFTT , respond with its HSA.
Key: 6000
